test_details: Stability test in the form of powders (30 days of storage, HPLC content)
Format: physicochemical
particulars: powder, closed glass bottles, at 40° C., 30 days, powder in closed glass bottles; read-out: remaining percentage
parameter_measured: remaining at 720 h (%)
Just the number in %, nothing appended.

Value of measured remaining at 720 h for the entry CCC[n+]1cc(Br)cc(C(=O)N(CCC(=O)NCCOC(=O)N2CCc3ccccc3C2)c2ccccc2)c1.O=[N+]([O-])[O-] [Compound (6), nitrate] : 99.3

* * *

test_details: Stability test in the form of powders (30 days of storage, HPLC content)
Type: physicochemical
particulars: powder, closed glass bottles, at room temperature (20±2° C.), 30 days, powder in closed glass bottles; read-out: remaining percentage
parameter_measured: remaining at 720 h (%)
Just the number in %, nothing appended.

Value of measured remaining at 720 h for the entry CCC[n+]1cc(Br)cc(C(=O)N(CCC(=O)NCCOC(=O)N2CCc3ccccc3C2)c2ccccc2)c1.O=[N+]([O-])[O-] [Compound (6), nitrate] : 100

The reported measurements were obtained from patent US4981860A.
